# Tested on: SK-MEL-2
# assay_remarks: NCI tumour cell line growth inhibition, 48 h
The source made the active and inactive calls. Cut-off read from the data, not from the text of the source: active = GI50 up to about 1.1 µM and inactive = higher. Non-standard residues stand in square brackets, D forms with d. Residues, ends and D or L forms follow the SMILES beside them. ξ: configuration not given here. *: point of attachment. X18 = COC1=CC(=O)N(C(=O)C(O*)C(C)C)C1Cc1ccccc1; ξNMe2Val = CC(C)C(C(=O)*)N(C)C; NMeV = CN[CH](C(=O)O)C(C)C
observation_type: GI50

Ask: Return reported GI50 for target or system SK-MEL-2, item COc1ccc2c(c1)[C@@H]1c3cc(OC)c(OC)cc3CCN1CCC2 .
Result: > 100 µM (inactive)

Ask: Report GI50 from SK-MEL-2 testing of Cc1ccc(S(=O)(=O)N2CCSCCSCCSCCSCC2)cc1
Result: > 34.6 µM (inactive)

Ask: Param request: GI50 | system SK-MEL-2 | item COc1ccc2c(c1)O[C@@H]1[C@@H](OC3OC(CO)C(O)C(O)C3O)Oc3cc(OC)c(OC)cc3[C@]1(O)C2=O (stereo partly specified)
Result: > 100 µM (inactive)

Ask: Quote SK-MEL-2 GI50 for entry C=C1CN2CCc3c([nH]c4ccccc34)C2CC1CC(=O)N(C)C (stereo unspecified) .
Result: > 309 µM (inactive)

Ask: Write down the reported GI50 (system: SK-MEL-2) of COc1cccc(C2c3cc4c(cc3OC(N3CCCCC3)C2C)OCO4)c1OC (stereo unspecified)
Result: 5.96 µM (inactive)

Ask: Fill in GI50 for CC1C(=O)OC2CC[N+]3(CC(=O)c4ccc(Br)cc4)CC=C(COC(=O)C(C)(O)C1(C)O)C23 (stereo unspecified) tested with SK-MEL-2.
Result: > 375 µM (inactive)

Ask: Report GI50 under test system SK-MEL-2 for COC1=CC(=O)N(C(=O)C(OC(=O)C2CCCN2C(=O)C2CCCN2C(=O)C(C(C)C)N(C)C(=O)C(NC(=O)C(C(C)C)N(C)C)C(C)C)C(C)C)C1Cc1ccccc1 (stereo unspecified) (ξNMe2Val-V[NMeV]PP-X18; configuration not given here) .
Result: 0.000902 µM (active)

Ask: Tell me its GI50 on SK-MEL-2: N#C/C(=C\c1cc(O)c(O)c(O)c1)C(N)=O
Result: > 100 µM (inactive)

Ask: Provide SK-MEL-2 GI50 reading for CN(CC1(CO)CCC1)c1cc(Cl)nc(N)n1 .
Result: > 100 µM (inactive)

Ask: # lookup: SK-MEL-2 GI50, key = [O-][n+]1nc(N2CCOCC2)nc2ccccc21
Result: > 100 µM (inactive)

Ask: Under SK-MEL-2, report GI50 for NC(CCOCCP(=O)(O)O)C(=O)O (stereo unspecified)
Result: > 100 µM (inactive)

====

# Tested on: OVCAR-4
# assay_remarks: NCI tumour cell line growth inhibition, 48 h
Calls of active or inactive are those of the source. Rule as the data show it: active = GI50 up to about 1.1 µM and inactive = higher.
observation_type: GI50

Ask: Send back OVCAR-4 GI50 of Brc1c2nc3ccccc3nc2n2ccc3ccccc3c12 only.
Result: > 100 µM (inactive)

Ask: Find the measured GI50 of CC1C/C(=N\N(C)C)C(C#N)(C#N)C1(C#N)C#N (configuration not stated) with OVCAR-4 as test system.
Result: 12.6 µM (inactive)

Ask: Answer briefly: GI50 recorded on OVCAR-4 for O=C(N/C(=C\c1cccc([N+](=O)[O-])c1)c1nc2c(O)nc(S)nc2[nH]1)c1ccccc1
Result: > 100 µM (inactive)

Ask: Return reported GI50 for target or system OVCAR-4, item O=c1oc2ccc(Cl)cc2cc1-c1cn2ccccc2n1 .
Result: 13.7 µM (inactive)

Ask: Tell me its GI50 on OVCAR-4: COc1ccc(-c2cc(=O)c3cc(C)c(C)c(C(=O)O)c3o2)cc1
Result: > 100 µM (inactive)

Ask: Specify GI50 for O=C1CCCCCCCCCCC(=O)C2CCOCCOCCOCCC1Cc1cccc(n1)C2 , system OVCAR-4.
Result: 51.5 µM (inactive)

Ask: Enter GI50 (test system OVCAR-4) for CSc1nc(C)cc(Nc2ccc(O)c(CN3CCOCC3)c2)n1
Result: > 100 µM (inactive)

Ask: Write down the reported GI50 (system: OVCAR-4) of N#C[BH2-][n+]1ccc(C(=O)NNCc2ccc(F)cc2)cc1
Result: 64.1 µM (inactive)

Ask: Look up and report measured GI50 (OVCAR-4) for the following compound: O=C(c1ccccc1)N1C(=O)N(c2ccccc2)C(=N/c2ccccc2)/C1=N\c1ccccc1
Result: 23.4 µM (inactive)

Ask: Give GI50 for CC(=O)OCc1ccc2c(c1)C(O)NC(=O)O2 (configuration not stated) tested on OVCAR-4.
Result: 93.1 µM (inactive)

Ask: Report value only: GI50, OVCAR-4, OCCCCCNc1nc(O)c2[nH]cnc2n1
Result: > 100 µM (inactive)

Ask: Look up OVCAR-4 data: GI50 of Cc1cc2[nH]c3c(C#N)c(-c4ccccc4)c(/N=N/c4ccc(F)cc4)c(=O)n3c2cc1C , then report it.
Result: 91 µM (inactive)

Ask: Send back OVCAR-4 GI50 of Cc1cccc(/N=N/C(=O)NNc2cccc(C)c2C)c1C only.
Result: 30.8 µM (inactive)

Ask: System OVCAR-4. Read-out GI50. Item CSc1nc(SC)c2c(CN=[N+]=[N-])c(Br)n(Cc3ccccc3)c2n1 . Report value.
Result: 76.7 µM (inactive)

Ask: State the measured GI50 (OVCAR-4) of COC(OC)C1OCC(n2cc(F)c(=O)[nH]c2=O)C1O (configuration not stated)
Result: > 100 µM (inactive)

Ask: State the measured GI50 (OVCAR-4) of Cc1nc(-c2ccc(/N=C/c3ccc(N(CCOS(C)(=O)=O)CCOS(C)(=O)=O)cc3C)cc2)cs1
Result: 59.6 µM (inactive)

Ask: Find the measured GI50 of O=c1c2ccccc2n2nnc3ccc(NCCCNCCNCCCNc4ccc5nnn6c7ccccc7c(=O)c4c56)c1c32 with OVCAR-4 as test system.
Result: 2.3 µM (inactive)

Ask: Fetch value of GI50 on OVCAR-4 for O=c1[nH]nc(Nc2ccc(Cl)cc2)c2nnn(C3CCCCC3)c12 .
Result: 17 µM (inactive)

Ask: Enter recorded GI50 with OVCAR-4 for Cc1c(NC(=O)CCCl)c(=O)oc2c(C)c3occc(=O)c3cc12 here.
Result: > 100 µM (inactive)

Ask: // fetch GI50; item: CC1(C)COC(c2ccc(C(F)(F)F)cc2C(O)c2ccc3ccccc3c2)=N1 (configuration not stated) ; system: OVCAR-4
Result: > 10 µM (inactive)

Ask: Give GI50 for CCOC(=O)/C(C(N)=O)=C(/O)c1cnccn1 tested on OVCAR-4.
Result: > 100 µM (inactive)

Ask: Specify GI50 for COC1[C@@H](OC(C)=O)[C@@H](NC(=O)C(Cl)(Cl)Cl)C(I)[C@@H](N2C(=O)c3ccccc3C2=O)[C@H]1OC (some centres not stated) , system OVCAR-4.
Result: 72.3 µM (inactive)

Ask: Identify measured GI50 obtained with OVCAR-4 for CCC/C(Cl)=N\OC(=O)Nc1cccc(C(F)(F)F)c1 .
Result: 22.6 µM (inactive)

Ask: For OVCAR-4, give GI50 of the listed compound: CC(=O)Oc1ccc(OC(Oc2ccccc2)c2ccccc2)cc1 (configuration not stated)
Result: 33.7 µM (inactive)

Ask: Give the observed GI50 of COC(=O)c1c(O)ccc2c1c1cc3ccccc3c(O)c1n2CCc1ccc(OC)c(OC)c1 for OVCAR-4.
Result: 42.1 µM (inactive)

Ask: Using OVCAR-4 as the test system, report measured GI50 of O=C(O)C1C(C(=O)O)C(C(=O)O)C1C(=O)O (configuration not stated) .
Result: > 100 µM (inactive)

Ask: Name the recorded GI50 of COC(=O)Nc1nc2cc(C(=O)c3cccs3)ccc2[nH]1 [NOCODAZOLE] , assay system OVCAR-4.
Result: 22.3 µM (inactive)

Ask: Jot down GI50 (OVCAR-4) of Cc1ccc(NC(=O)c2cc(S(=O)(=O)Nc3n[nH]c(=O)[nH]3)c(SSc3cc(Cl)c(C(=O)Nc4ccc(C)cc4)cc3S(=O)(=O)Nc3n[nH]c(=O)[nH]3)cc2Cl)cc1 .
Result: > 100 µM (inactive)

Ask: Find GI50 for c1cc2c(cc1C1OCC3C(c4ccc5c(c4)OCO5)OCC13)OCO2 (configuration not stated) on OVCAR-4 and write it down.
Result: > 100 µM (inactive)

Ask: Find the measured GI50 of O=c1[nH]nc(Nc2ccccc2)c2nnn(Cc3ccccc3)c12 with OVCAR-4 as test system.
Result: 8.32 µM (inactive)

Ask: Report its GI50 with OVCAR-4 as the test system: CC1=C(C)C1[N+](=O)[O-]
Result: > 100 µM (inactive)

Ask: Give GI50; test system OVCAR-4; compound COc1ccc2c(c1)[C@@H]1c3cc(OC)c(OC)cc3CCN1CCC2
Result: 35.3 µM (inactive)
